Molecular target: Muscarinic acetylcholine receptor M5 (Homo sapiens)
Assay: human M5 muscarinic receptor antagonists, primary screen, CHO cells, Fluo-8 calcium fluorescence (AID 624040);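 also: 0% = acetylcholine EC80 with DMSO and 100% = DMSO without agonist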
Details: CHO-hM5 cells, ACh EC80, at 3 µM, active compounds read high
The whole screen tested about 360,000 compounds, of which about 2,100 (0.58%) were called active. What follows is part of a selection rich in actives, with near analogues and random picks from the rest.
Please provide measured inhibition for the entries that follow.
# unit: % | format: bare number

[in] So what does the record say about inhibition for COC1=CC=C2[C@H]3Cc4ccc(OC)c5c4[C@@]2(CCN3C)C1O5 (stereo partly specified) ?
[out] -5.74

[in] CCOC(=O)C1(c2ccccc2)CCN(CC(O)c2ccc(NC(C)=O)cc2)CC1 (stereo unspecified) , same question.
[out] 11.2

[in] `COc1ccc2c(c1O)-c1cccc3c1[C@@H](C2)N(C)CC3` , same question.
[out] -4.83

[in] CC1C2Cn3c(nc4ccccc43)C1N(C)O2 (stereo unspecified) , same question.
[out] 0.97

[in] `CNC(=S)N/N=C1\C2CN3CCN(C2)CC1(c1ccccc1)C3` , same question.
[out] 3.28

[in] CCn1cc(CN2CCCC(C(=O)c3cccc(C(F)(F)F)c3)C2)cn1 (stereo unspecified) , same question.
[out] 12.4

From: PubChem BioAssay AID624040
